tested on: Human immunodeficiency virus 2; test: Antiviral activity against HIV2 replication in human wild type CEM/0 cells assessed as virus-induced cytopathic effect; format: functional, organism-based; details: Human immunodeficiency virus 2, CCRF-CEM
// values below are reported EC50
Attribute measured: EC50 (nM)

Compound | Observed result
CC(=O)c1cc2c(c(C(C)(C)C)c1)O[P@](=O)(OC[C@@H]1C=C[C@H](n3cc(C)c(=O)[nH]c3=O)O1)OC2 | 510
CC(=O)c1cc(C)c2c(c1)COP(=O)(OC[C@@H]1C=C[C@H](n3cc(C)c(=O)[nH]c3=O)O1)O2 (stereo partly drawn) | 2200
CC(=O)c1cc2c(c(C(C)(C)C)c1)OP(=O)(OC[C@@H]1C=C[C@H](n3cc(C)c(=O)[nH]c3=O)O1)OC2 (stereo partly drawn) | 870
C=C(OC(C)=O)c1cc(C)c2c(c1)COP(=O)(OC[C@@H]1C=C[C@H](n3cc(C)c(=O)[nH]c3=O)O1)O2 (stereo partly drawn) | 400
Cc1cn([C@H]2C=C[C@@H](CO)O2)c(=O)[nH]c1=O | 1100
CC(=O)c1cc2c(c(C(C)(C)C)c1)O[P@@](=O)(OC[C@@H]1C=C[C@H](n3cc(C)c(=O)[nH]c3=O)O1)OC2 | 1200
C=C(OC(C)=O)c1ccc2c(c1)COP(=O)(OC[C@@H]1C=C[C@H](n3cc(C)c(=O)[nH]c3=O)O1)O2 (stereo partly drawn) | 800
C=C(OC(C)=O)c1cc2c(c(C(C)(C)C)c1)O[P@](=O)(OC[C@@H]1C=C[C@H](n3cc(C)c(=O)[nH]c3=O)O1)OC2 | 800

###

assay: Cytotoxicity against human wild type CEM/0 cells; format: cell-based; conditions: CCRF-CEM

Compound | CC50
CC(=O)c1cc(C)c2c(c1)COP(=O)(OC[C@@H]1C=C[C@H](n3cc(C)c(=O)[nH]c3=O)O1)O2 (some centres not stated) | 96 µM
C=C(OC(C)=O)c1cc2c(c(C(C)(C)C)c1)O[P@](=O)(OC[C@@H]1C=C[C@H](n3cc(C)c(=O)[nH]c3=O)O1)OC2 | 20 µM
Cc1cn([C@H]2C=C[C@@H](COP3(=O)OCc4cc(C(OC(=O)C(C)C)OC(=O)C(C)C)cc(C(C)(C)C)c4O3)O2)c(=O)[nH]c1=O (some centres not stated) | 20 µM
CC(=O)c1cc2c(c(C(C)(C)C)c1)O[P@](=O)(OC[C@@H]1C=C[C@H](n3cc(C)c(=O)[nH]c3=O)O1)OC2 | 56 µM
CC(=O)OC(OC(C)=O)c1cc2c(c(C(C)(C)C)c1)O[P@@](=O)(OC[C@@H]1C=C[C@H](n3cc(C)c(=O)[nH]c3=O)O1)OC2 | 51 µM
CC(=O)c1ccc2c(c1)COP(=O)(OC[C@@H]1C=C[C@H](n3cc(C)c(=O)[nH]c3=O)O1)O2 (some centres not stated) | 148 µM
CC(=O)c1cc2c(c(C(C)(C)C)c1)OP(=O)(OC[C@@H]1C=C[C@H](n3cc(C)c(=O)[nH]c3=O)O1)OC2 (some centres not stated) | 49 µM

###

experiment: Cytotoxicity against human wild type CEM/0 cells; format: cell-based; conditions: CCRF-CEM
// values below are reported CC50
Attribute measured: CC50 (µM)

Compound | Observed result
Cc1cn([C@H]2C=C[C@@H](COP3(=O)OCc4cc(C=O)cc(C(C)(C)C)c4O3)O2)c(=O)[nH]c1=O (stereo partly drawn) | 33
CC(=O)OC(OC(C)=O)c1cc2c(c(C(C)(C)C)c1)OP(=O)(OC[C@@H]1C=C[C@H](n3cc(C)c(=O)[nH]c3=O)O1)OC2 (stereo partly drawn) | 19
CC(=O)c1cc2c(c(C(C)(C)C)c1)O[P@@](=O)(OC[C@@H]1C=C[C@H](n3cc(C)c(=O)[nH]c3=O)O1)OC2 | 64

Data provenance is ChEMBL document CHEMBL1151762.
